# Assay Details: chemical genetic growth profiling, strain panel (AID 1159580);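 further: tested at 20 µM; growth read once vehicle control cultures reached saturation at 30 °C; 1 = growth at the plate median or of vehicle wells; lower values mean less growth of the strain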
# Assay Context: S. cerevisiae deletion strains, growth OD, locus YAL013W, strain DEP1, active compounds read low
The campaign covered roughly 5,500 compounds. About 2,000 (36%) were called active. Not shown: some 18% with an inconclusive outcome. Some of the results follow.
So I've got a bunch of molecules here, and I need their normalized growth values.
# respond with the number and nothing more

normalized growth for CN1C2CCC1CC(=NO)C2 is 0.993

normalized growth for CSc1c(C#N)c(-c2cccs2)nn1C is 0.934

normalized growth for O=C(NCCSCc1ccco1)c1ccc(Cl)cc1 is 0.976

normalized growth for Nc1ccc(S(=O)(=O)Nc2ccccn2)cc1 is 1.02

normalized growth for CC(C)(C)C(=O)NC(=S)Nc1cccc(C(F)(F)F)c1 is 0.925

normalized growth for Cc1ccc(/C(=C\CN2CCCC2)c2ccccn2)cc1 is 1.01

normalized growth for CCCCNC(=O)NCCSCc1ccco1 is 1.01

normalized growth for CC1(C)CCC2=C(O1)c1ccccc1C(=O)C2=O is 0.879

normalized growth for CN1CCCC12NCCc1c2[nH]c2ccccc12 (centres undefined) is 0.993

normalized growth for CSc1ccc(/C=C/[N+](=O)[O-])cc1 is 0.0558

normalized growth for COc1cc(OC)c2c(=O)c(-c3ccccc3)c(C)oc2c1OC is 1.01

normalized growth for Nc1nc(Cl)nc2c1ncn2[C@@H]1O[C@H](COP(=O)(O)OP(=O)(O)OP(=O)(O)O)[C@H](O)C1O (some centres undefined) is 0.999

normalized growth for CC(=O)O[C@H]1C[C@@H](OC(C)=O)C(C)(C)C2C[C@@H](OC(C)=O)[C@@]3(C)C4=CC(=O)O[C@@H](c5ccoc5)[C@]4(C)CCC3[C@]21C (some centres undefined) is 1.01

normalized growth for O=C(NCCSCc1ccc(Cl)cc1)c1ccc(Cl)cc1 is 0.941

normalized growth for CCCC1O[C@@H]2CC3C4CCC5=CC(=O)C=CC5(C)C4[C@@H](O)CC3(C)[C@]2(C(=O)CO)O1 (some centres undefined) is 1

normalized growth for COc1ccc(-c2ccnc(SCC(=O)NCCSCc3ccco3)n2)cc1 is 1.01

normalized growth for Cc1onc(NC(=O)NC(=O)c2c(F)cccc2Cl)c1Br is 1

normalized growth for O=C(NC(=S)NCc1ccncc1)c1ccccc1 is 1.02

normalized growth for O=C(NCCSCc1ccco1)Nc1cc(Cl)cc(Cl)c1 is 0.915

normalized growth for CCCc1occc(=O)c1/C=C/O is 0.98

normalized growth for CC(=O)Nc1ccc(S(=O)(=O)Nc2ccc([N+](=O)[O-])cc2)cc1 is 1.01

normalized growth for COc1ccc(CCNC(=S)Nc2cccc(C(F)(F)F)c2)cc1OC is 0.997

normalized growth for O=[N+]([O-])/C=C/c1ccsc1 is 0.0965

normalized growth for Cc1[nH]ncc1-c1ccccc1 is 1
